System: N-acetyl-β-D-glucosaminidase (bovine kidney)
Experiment: Glycosidase inhibition, Table 7
Assay type: biochemical
Conditions: 1 mg/mL aqueous solution added, 27 °C, run in water
Method: All enzymes and para-nitrophenyl substrates were purchased from Sigma. Enzymes were assayed at 27 °C in citric acid (0.1M)/disodium hydrogen phosphate (0.2 M) buffers at the optimum pH for the enzyme. […] The reactions were stopped by the addition of […] 0.4 M glycine (pH 10.4) during the exponential phase of the reaction, which had been determined at the beginning using uninhibited assays in which water replaced the inhibitor. […]
recorded.endpoint: N-Acetyl-β-D-glucosaminidase Bovine Kidney, percentage inhibition (%)
Provide only the numeric value, understood in %.

[
  {
    "compound": "N[C@@H](Cc1ccc(B(O)O)cc1)C(=O)O [BPA, 4-borono-L-phenylalanine, reference compound]",
    "endpoint.unit": "%",
    "recorded.result": 6.7
  },
  {
    "compound": "OC1O[C@@H]2[C@H]([C@H]1O)N(Cc1ccccc1)C[C@H]2O (stereo partly shown)",
    "endpoint.unit": "%",
    "recorded.result": "−9.1"
  },
  {
    "compound": "N[C@@H](Cc1ccc(B(O)O)cc1)C(=O)O [^10B-BPA, reference compound]",
    "endpoint.unit": "%",
    "recorded.result": 6.3
  }
]

Now turn to the next compound.
Fill blank: measured N-Acetyl-β-D-glucosaminidase Bovine Kidney, percentage inhibition of the compound `CC1(C)O[C@H]2O[C@H]3[C@@H]([C@H]2O1)N(Cc1ccccc1)C[C@H]3O` is ____.
−0.1

---

Target: α-D-glucosidase (from yeast) (Saccharomyces cerevisiae)
Construct: purchased Sigma-Aldrich Co
Test: Glycosidase inhibition, Table 6 (Laboratory 1)
Format: biochemical
recorded.endpoint: inhibition at 100 µM (%)
Unit % implied. Number only.

[
  {
    "compound": "OC[C@H](O)[C@@H]1[C@H](O)[C@H](O)CN1Cc1ccccc1 [Compound 5, N-Benzyl-1,4-dideoxy-1,4-imino-L-gulitol]",
    "inhibition at 100 µM, %": 2.9
  }
]

Need inhibition at 100 µM of CC1(C)O[C@H]2O[C@H]3[C@@H]([C@H]2O1)N(Cc1ccc(B2OC(C)(C)C(C)(C)O2)cc1)C[C@H]3O [para 6] , thanks.
3.4

What value of measured inhibition at 100 µM is listed for CC1(C)O[C@H]2O[C@H]3[C@@H]([C@H]2O1)N(Cc1ccccc1)C[C@H]3O [Compound 3] ?
4.7

Give the measured inhibition at 100 µM of N[C@@H](Cc1ccc(B(O)O)cc1)C(=O)O [BPA, 4-borono-L-phenylalanine, reference compound] .
0

---

Tested on: MCF-7 breast carcinoma cells
Test: Cancer screening, MTT growth inhibition
Type: cell-based
Details: Homo sapiens, MCF7, 72-h exposure, read-out: MCF-7 Breast Carcinoma, Percentage (%) Cell Growth Inhibition in response to 25 µM of Drug
recorded.endpoint: inhibition at 25 µM (%)
Answer format: numeric, % implied, no suffix.

Please review the entries below; each comes with its answer.
[
  {
    "molecule": "OC1O[C@@H]2[C@H]([C@H]1O)N(Cc1ccccc1)C[C@H]2O (stereo partly shown)",
    "study.target": "MCF-7 breast carcinoma cells",
    "inhibition at 25 µM [%]": 9
  },
  {
    "molecule": "CC1(C)O[C@H]2O[C@H]3[C@@H]([C@H]2O1)N(Cc1ccccc1)C[C@H]3O",
    "study.target": "MCF-7 breast carcinoma cells",
    "inhibition at 25 µM [%]": 7
  }
]

Continue with the molecule presented below.
# lookup: inhibition at 25 µM of `CC1(C)O[C@H]2O[C@H]3[C@@H]([C@H]2O1)N(Cc1ccc(B2OC(C)(C)C(C)(C)O2)cc1)C[C@H]3O`
3

---

Target: α-D-glucosidase (yeast) (Saccharomyces cerevisiae)
Construct: purchased Sigma
Sequence (P53341 whole entry): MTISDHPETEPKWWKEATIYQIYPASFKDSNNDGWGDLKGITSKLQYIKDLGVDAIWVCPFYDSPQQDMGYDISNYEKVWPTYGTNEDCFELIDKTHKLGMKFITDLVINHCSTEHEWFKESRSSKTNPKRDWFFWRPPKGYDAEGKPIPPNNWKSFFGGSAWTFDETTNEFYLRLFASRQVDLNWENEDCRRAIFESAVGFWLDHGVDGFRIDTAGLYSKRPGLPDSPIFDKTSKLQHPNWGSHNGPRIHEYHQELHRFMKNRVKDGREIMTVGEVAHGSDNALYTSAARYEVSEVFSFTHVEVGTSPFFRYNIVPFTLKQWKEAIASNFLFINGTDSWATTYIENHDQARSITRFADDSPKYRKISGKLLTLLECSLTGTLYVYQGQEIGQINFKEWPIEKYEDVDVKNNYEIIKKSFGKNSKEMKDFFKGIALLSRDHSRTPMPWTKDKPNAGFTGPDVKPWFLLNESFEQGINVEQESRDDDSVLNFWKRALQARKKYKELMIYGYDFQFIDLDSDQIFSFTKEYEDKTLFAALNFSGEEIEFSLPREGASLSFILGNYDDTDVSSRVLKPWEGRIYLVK
Assay: Glycosidase inhibition, Table 7
Type: biochemical
Settings: 1 mg/mL aqueous solution added, 27 °C, run in water, read-out: α-D-Glucosidase Yeast, percentage inhibition
recorded.endpoint: inhibition at 1000 µg/mL (stock) (%)
All answers are understood in %, so give the number only.

[
  {
    "compound": "OC[C@H](O)[C@@H]1[C@H](O)[C@H](O)CN1Cc1ccccc1",
    "inhibition at 1000 µg/mL (stock), %": 5.5
  },
  {
    "compound": "OC[C@H](O)[C@@H]1[C@H](O)[C@H](O)CN1Cc1ccc(B(O)O)cc1",
    "inhibition at 1000 µg/mL (stock), %": 9.7
  },
  {
    "compound": "N[C@@H](Cc1ccc(B(O)O)cc1)C(=O)O [BPA, 4-borono-L-phenylalanine, reference compound]",
    "inhibition at 1000 µg/mL (stock), %": 2.9
  }
]

Requested read-out: inhibition at 1000 µg/mL (stock). Entry: `CC1(C)O[C@H]2O[C@H]3[C@@H]([C@H]2O1)N(Cc1ccccc1)C[C@H]3O`
-89

Using the record for OC1O[C@@H]2[C@H]([C@H]1O)N(Cc1ccccc1)C[C@H]2O (stereo partly drawn) , report its inhibition at 1000 µg/mL (stock).
-79

Given the compound OB(O)c1ccc(CN2CC(O)C3OC(O)C(O)C32)cc1 (stereo not drawn) , what is its reported inhibition at 1000 µg/mL (stock)?
4.2

---

Test system: α-L-rhamnosidase (from Penicillium decumbens)
Test: Glycosidase inhibition, Table 6 (Laboratory 1)
Assay type: biochemical
Conditions: 100 μM
recorded.endpoint: α-L-Rhamnosidase P. decumbens, inhibition % at 100 μM

[
  {
    "compound": "N[C@@H](Cc1ccc(B(O)O)cc1)C(=O)O [BPA, 4-borono-L-phenylalanine, reference compound]",
    "study.target": "α-L-rhamnosidase (from Penicillium decumbens)",
    "recorded.result": "^c NI ^d (0%)"
  },
  {
    "compound": "N[C@@H](Cc1ccc(B(O)O)cc1)C(=O)O [^10B-BPA, reference compound]",
    "study.target": "α-L-rhamnosidase (from Penicillium decumbens)",
    "recorded.result": "^c NI ^d (0%)"
  }
]

---

System: β-D-glucuronidase (bovine liver)
Experiment: Glycosidase inhibition, Table 6 (Laboratory 1)
Assay type: biochemical
Settings: 100 μM
recorded.endpoint: β-D-Glucuronidase Bovine Liver, inhibition % at 100 μM

[
  {
    "compound": "CC1(C)O[C@H]2O[C@H]3[C@@H]([C@H]2O1)N(Cc1ccccc1)C[C@H]3O",
    "recorded.result": "^c NI ^d (0%)"
  },
  {
    "compound": "CC1(C)O[C@H]2O[C@H]3[C@@H]([C@H]2O1)N(Cc1ccc(B2OC(C)(C)C(C)(C)O2)cc1)C[C@H]3O",
    "recorded.result": "^c NI ^d (0%)"
  },
  {
    "compound": "N[C@@H](Cc1ccc(B(O)O)cc1)C(=O)O [^10B-BPA, reference compound]",
    "recorded.result": "^c NI ^d (0%)"
  }
]

---

The entries below come with measured inhibition at 25 µM values attached.
Tested on: A2780 ovarian carcinoma cells
Assay: Cancer screening, MTT growth inhibition
Type: cell-based
Conditions: Homo sapiens, A2780, 25 µM, 72-h exposure, read-out: A2780 Ovarian Carcinoma, Percentage (%) Cell Growth Inhibition in response to 25 µM of Drug
Enter your answer as a number in %; do not include the unit.

// below: answered compounds
[
  {
    "compound": "OC1O[C@@H]2[C@H]([C@H]1O)N(Cc1ccccc1)C[C@H]2O (stereo partly shown) [Compound 4]",
    "recorded.endpoint": "inhibition at 25 µM",
    "endpoint.unit": "%",
    "recorded.result": 15
  },
  {
    "compound": "OC[C@H](O)[C@@H]1[C@H](O)[C@H](O)CN1Cc1ccccc1 [Compound 5, N-Benzyl-1,4-dideoxy-1,4-imino-L-gulitol]",
    "recorded.endpoint": "inhibition at 25 µM",
    "endpoint.unit": "%",
    "recorded.result": 13
  },
  {
    "compound": "N[C@@H](Cc1ccc(B(O)O)cc1)C(=O)O [BPA, 4-borono-L-phenylalanine, reference compound]",
    "recorded.endpoint": "inhibition at 25 µM",
    "endpoint.unit": "%",
    "recorded.result": 4
  },
  {
    "compound": "CC1(C)O[C@H]2O[C@H]3[C@@H]([C@H]2O1)N(Cc1ccc(B2OC(C)(C)C(C)(C)O2)cc1)C[C@H]3O [para 6]",
    "recorded.endpoint": "inhibition at 25 µM",
    "endpoint.unit": "%",
    "recorded.result": 14
  }
]

I would be grateful if you could share the reported inhibition at 25 µM for OC[C@H](O)[C@@H]1[C@H](O)[C@H](O)CN1Cc1ccc(B(O)O)cc1 [para 8] .
14

Return reported inhibition at 25 µM; argument: OB(O)c1ccc(CN2CC(O)C3OC(O)C(O)C32)cc1 (stereo not shown) [para 7]
27

If you can, please state the reported inhibition at 25 µM value of CC1(C)O[C@H]2O[C@H]3[C@@H]([C@H]2O1)N(Cc1ccccc1)C[C@H]3O [Compound 3] .
11
